- Target System: HTRA1, Q92743
- Sequence (Q92743 360-477): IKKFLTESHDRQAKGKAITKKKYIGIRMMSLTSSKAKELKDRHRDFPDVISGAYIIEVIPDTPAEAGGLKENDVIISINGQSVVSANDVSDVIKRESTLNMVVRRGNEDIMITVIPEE
- Test Description: holdup assay
- Set-up: key: below the threshold = too weak to quantify, mostly under pKd 3.1 to 4
- Condition Details: plain residues with an end cap or a label only (N-terminal biotin on a linker: ttds)
Experimental Readout: pKd

> print(dat)
                          binder  experimental.readout               result
1  SRPQRTQTQV [HPV67-E6, A4U7F2]                   pKd  below the threshold
2    VLRLQSETSV [VANGL1, Q8TAA9]                   pKd  below the threshold
3  SSRTRRETQL [HPV16-E6, P03126]                   pKd  below the threshold
4  IDNDTESTAL [ARHGAP17, Q68EM7]                   pKd                 3.65
